Entries annotated with measured pKi
Target under test: human H4 receptor (Homo sapiens);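 further: radioligand displacement of a [3H]-labelled ligand from membranes of CHO cells stably expressing human H4 receptor, bound radioactivity counted on filters by liquid scintillation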
Sequence (Q9H3N8 whole entry): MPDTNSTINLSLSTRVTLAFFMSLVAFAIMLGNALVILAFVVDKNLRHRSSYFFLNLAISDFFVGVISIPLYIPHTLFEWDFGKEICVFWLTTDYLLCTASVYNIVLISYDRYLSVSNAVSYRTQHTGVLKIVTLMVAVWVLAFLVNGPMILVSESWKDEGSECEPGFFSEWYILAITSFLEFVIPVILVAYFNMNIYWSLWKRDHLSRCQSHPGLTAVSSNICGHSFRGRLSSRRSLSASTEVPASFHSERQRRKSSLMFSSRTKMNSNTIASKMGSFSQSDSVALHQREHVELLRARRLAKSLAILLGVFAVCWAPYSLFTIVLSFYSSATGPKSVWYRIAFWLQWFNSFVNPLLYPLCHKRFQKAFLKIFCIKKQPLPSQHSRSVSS
Assay overview: biochemical
pKi: −log10 of the molar value. Structures can show the parent of a compound that is named as a salt.
Readout type: pKi

[[record]]
molecule = "CN1CCC(OC2c3ccccc3CCn3cc(C#CCNC(=O)OC(C)(C)C)nc32)CC1 (centres unmarked) [Example 72]"
target_under_test = "human H4 receptor (Homo sapiens)"
test_result = "> 7.52"

[[record]]
molecule = "CN1CCC(OC2c3ccccc3CCn3cc(C(C)(C)c4ccc(Cl)cc4)nc32)CC1 (centres unmarked) [Example 117, oxalate]"
target_under_test = "human H4 receptor (Homo sapiens)"
test_result = "> 6.52"

[[record]]
molecule = "CN1CCC(OC2c3ccccc3CCn3cc(-c4ccccc4Cl)nc32)CC1 (centres unmarked) [Example 26, oxalate]"
target_under_test = "human H4 receptor (Homo sapiens)"
test_result = "> 7.52"

[[record]]
molecule = "CN1CCC(OC2c3ccccc3CCn3c2nc(-c2ccccc2)c3C#N)CC1 (centres unmarked) [Example 235]"
target_under_test = "human H4 receptor (Homo sapiens)"
test_result = "> 7.52"

[[record]]
molecule = "CN1CCC(OC2c3ccccc3CCn3cc(CCc4ccccc4)nc32)CC1 (centres unmarked) [Example 38, oxalate]"
target_under_test = "human H4 receptor (Homo sapiens)"
test_result = "> 6.52"

[[record]]
molecule = "Cc1c(-c2ccccc2)nc2n1CCc1ccccc1C2OC1CCN(C)CC1 (centres unmarked) [Example 103]"
target_under_test = "human H4 receptor (Homo sapiens)"
test_result = "> 7.52"

[[record]]
molecule = "Cc1c(-c2ccc(NC(=O)OCC(C)C)cc2)nc2n1CCc1ccccc1C2OC1CCN(C)CC1 (centres unmarked) [Example 174]"
target_under_test = "human H4 receptor (Homo sapiens)"
test_result = "> 7.52"

[[record]]
molecule = "CN1CCC(OC2c3ccc(Br)cc3CCn3cc(-c4ccccc4)nc32)CC1 (centres unmarked) [Example 261]"
target_under_test = "human H4 receptor (Homo sapiens)"
test_result = "> 6.52"

[[record]]
molecule = "C=CCc1cn2c(n1)C(OC1CCN(C)CC1)c1ccccc1CC2 (centres unmarked) [Example 30, oxalate]"
target_under_test = "human H4 receptor (Homo sapiens)"
test_result = "> 6.52"

[[record]]
molecule = "Cc1c(I)nc2n1CCc1ccccc1C2OC1CCN(C)CC1 (centres unmarked) [Example 133]"
target_under_test = "human H4 receptor (Homo sapiens)"
test_result = "> 6.52"

[[record]]
molecule = "CC(C)c1c(-c2ccccc2)nc2n1CCc1ccccc1C2OC1CCN(C)CC1.O=C(O)C(=O)O.O=C(O)C(=O)O (centres unmarked) [Example 243, dioxalate]"
target_under_test = "human H4 receptor (Homo sapiens)"
test_result = "> 6.52"

[[record]]
molecule = "CNc1ccc(-c2cn3c(n2)C(OC2CCN(C)CC2)c2ccccc2CC3)cc1 (centres unmarked) [Example 100, oxalate]"
target_under_test = "human H4 receptor (Homo sapiens)"
test_result = "> 6.00"

[[record]]
molecule = "Cc1ccc(-c2cn3c(n2)C(OC2CCN(C)CC2)c2ccccc2CC3)cn1 (centres unmarked) [Example 39, oxalate]"
target_under_test = "human H4 receptor (Homo sapiens)"
test_result = "> 6.00"

[[record]]
molecule = "Cc1ccc(-c2nc3n(c2C)CCc2ccccc2C3OC2CCN(C)CC2)c(Cl)c1 (centres unmarked) [Example 157]"
target_under_test = "human H4 receptor (Homo sapiens)"
test_result = "> 7.52"

